Molecular target: human activated kallikrein enzyme (Homo sapiens, UniProt P03952)
Sequence (P03952 391-638 limits assumed): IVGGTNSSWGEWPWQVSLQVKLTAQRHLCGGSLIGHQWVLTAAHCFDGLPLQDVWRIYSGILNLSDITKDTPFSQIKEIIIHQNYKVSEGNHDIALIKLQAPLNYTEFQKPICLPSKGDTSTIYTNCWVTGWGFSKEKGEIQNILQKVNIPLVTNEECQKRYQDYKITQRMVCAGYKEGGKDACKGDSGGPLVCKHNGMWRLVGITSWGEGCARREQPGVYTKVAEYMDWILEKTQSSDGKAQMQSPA
Sequence (P03952 20-390 partner limits assumed): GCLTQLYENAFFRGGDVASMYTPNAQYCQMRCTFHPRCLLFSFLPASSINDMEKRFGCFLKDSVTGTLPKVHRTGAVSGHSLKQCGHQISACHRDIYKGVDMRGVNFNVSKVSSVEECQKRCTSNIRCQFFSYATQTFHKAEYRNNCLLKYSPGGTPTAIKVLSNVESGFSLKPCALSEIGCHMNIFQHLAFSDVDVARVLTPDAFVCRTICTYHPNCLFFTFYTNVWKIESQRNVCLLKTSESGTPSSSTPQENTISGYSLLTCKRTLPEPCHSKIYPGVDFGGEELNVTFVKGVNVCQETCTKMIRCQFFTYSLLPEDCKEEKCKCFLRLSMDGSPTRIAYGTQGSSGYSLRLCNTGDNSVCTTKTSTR
Test: Inhibition of human activated plasma kallikrein, fluorogenic PFR-AMC substrate, 500 pM enzyme format
Assay type: biochemical
Conditions: 500 pM activated kallikrein; 300 μM PFR-AMC; 30 min preincubation; 10 min room temperature; pH 7.5; read-out: Primary Dose Response Assay: Average EC50
pEC50: −log10 of the molar value. Counter-ions that a name gives are not always drawn.
value.type: pEC50

Worked examples follow.
compound | assay.target | pEC50
Cc1cc2c(N)nccc2c(C)c1CNC(=O)c1cnn(Cc2ccc(Cc3cccn(CC(F)(F)F)c3=O)cc2)c1 | human activated kallikrein enzyme (Homo sapiens, UniProt P03952) | 8.00 to 9.00
Cc1cc2c(N)nccc2c(C)c1CNc1cc(OCc2ccccc2)cnn1 | human activated kallikrein enzyme (Homo sapiens, UniProt P03952) | 6.00 to 7.00
Cc1cc2c(N)nccc2c(C)c1CNc1cc(NCc2ccc(Cc3ccccn3)cc2)ncn1 | human activated kallikrein enzyme (Homo sapiens, UniProt P03952) | > 9.00
Cc1cc2c(N)nccc2c(C)c1CNc1cc(OCc2ccc(Cn3cccn3)cn2)cnn1 | human activated kallikrein enzyme (Homo sapiens, UniProt P03952) | > 9.00
Cc1cc2c(N)nccc2c(C)c1CNc1nccc2cn(Cc3cn4cc(C5CC5)ccc4n3)nc12 | human activated kallikrein enzyme (Homo sapiens, UniProt P03952) | > 9.00

Q. # returns recorded pEC50 (system: human activated kallikrein enzyme (Homo sapiens, UniProt P03952)) for Cc1cc2c(N)nccc2c(C)c1CNc1cc(OCc2ccc(Cn3cccn3)cc2)ncn1
A. > 9.00

Q. Try the compound Cc1cc2c(N)nccc2c(C)c1CNC(=O)c1cnn(Cc2cn3cc(Cl)ccc3n2)c1
A. > 9.00

Q. Try the compound Cc1cc2c(N)nccc2c(C)c1CNc1nccc2nnn(Cc3cn4cc(C5CC5)ccc4n3)c12
A. 6.00 to 7.00

Q. Try the compound Cc1ccc2cnc(Cn3cc(C(=O)NCc4c(C)cc5c(N)nccc5c4C)cn3)cc2c1
A. > 9.00

Q. Try the compound Cc1cc2c(N)nccc2c(C)c1CNc1cc(NCc2cn3cc(Cl)ccc3n2)ncn1 [Example 313, formic acid salt]
A. > 9.00

Q. Try the compound Cc1cc2c(N)nccc2c(C)c1CNC(=O)c1cnn(Cc2cc3c(Cl)cccc3s2)c1
A. 8.00 to 9.00

Q. Try the compound Cc1cc2c(N)nccc2c(C)c1CNc1cc(OCc2ccc3ncc(Cl)cc3c2)cnn1
A. > 9.00

Q. Try the compound Cc1cc2c(N)nccc2c(C)c1CNc1cc(OCc2cnc3ccccn23)cnn1
A. < 6.00

Q. Try the compound Cc1cc2c(N)nccc2c(C)c1CNc1cc(OCc2ccc3ncccc3c2)cnn1
A. 8.00 to 9.00

Q. Try the compound Cc1cc2c(N)nccc2c(C)c1CNc1nccc2c1nnn2Cc1cn2cc(C3CC3)ccc2n1
A. < 6.00

Q. Try the compound Cc1cc2c(N)nccc2c(C)c1CNC(=O)c1cnn(Cc2cc(C(F)(F)F)cc(C(F)(F)F)c2)c1
A. 7.00 to 8.00

Q. Try the compound Cc1cc2c(N)nccc2c(C)c1CNC(=O)c1cnn(Cc2cccc(C#N)c2)c1
A. 7.00 to 8.00

Q. Try the compound Cc1cc2c(N)nccc2c(C)c1CNc1cc(NCc2cn3cc(C#N)ccc3n2)ncn1
A. 8.00 to 9.00

Q. Try the compound Cc1cc2c(N)nccc2c(C)c1CNC(=O)c1cnn(Cc2ccc(C3CCN(C)C3=O)cc2)c1 (stereo not shown)
A. 8.00 to 9.00

Q. Try the compound Cc1cc2c(N)nccc2c(C)c1CNC(=O)c1cnn(C(F)(F)c2ccccc2)c1
A. 6.00 to 7.00

Q. Try the compound Cc1cc2c(N)nccc2c(C)c1CNC(=O)c1cnn(Cc2ccc(-n3ccccc3=O)nc2)c1
A. 7.00 to 8.00

Q. Try the compound Cc1cc2c(N)nccc2c(C)c1CNc1ccnc(OCc2cn3cc(C4CC4)ccc3n2)c1
A. 8.00 to 9.00

Q. Try the compound Cc1cc2c(N)nccc2c(C)c1CNC(=O)c1cnn(Cc2nc3ccccc3s2)c1
A. 7.00 to 8.00
